Literature roundup of Sodium-dependent noradrenaline transporter (Homo sapiens, UniProt P23975) data, read-out pKi.
pKi: −log10 of the molar value.
MEASUREMENT NAME: pKi

[
  {
    "COMPOUND": "Clc1ccc(O[C@@H](C2CC2)[C@H]2CCNC2)c(Cl)c1",
    "MEASUREMENT NAME": "pKi",
    "RESULT": "≥ 8.00"
  },
  {
    "COMPOUND": "CC(C)[C@H](Oc1ccc(Cl)c(Cl)c1)[C@H]1CCNC1",
    "MEASUREMENT NAME": "pKi",
    "RESULT": "≥ 8.00"
  },
  {
    "COMPOUND": "Fc1cc(Cl)cc(F)c1O[C@@H](C1CC1)[C@H]1CCNC1",
    "MEASUREMENT NAME": "pKi",
    "RESULT": "≥ 8.00"
  },
  {
    "COMPOUND": "C[C@@H]1CNCCN1c1nc(-c2c(F)cccc2F)c2ccccc2n1",
    "MEASUREMENT NAME": "pKi",
    "RESULT": 7.84
  },
  {
    "COMPOUND": "CNCCC(Oc1cccc(-n2nc3c(N(C)C)nnc(C)c3c2C)c1)c1ccc(C(N)=O)cc1 (centres unmarked)",
    "MEASUREMENT NAME": "pKi",
    "RESULT": "6.30 to 7.00"
  }
]
